- assayed target: Follistatin-related protein 3 (Homo sapiens) (UniProt O95633)
- Sequence (O95633 whole entry, looked up): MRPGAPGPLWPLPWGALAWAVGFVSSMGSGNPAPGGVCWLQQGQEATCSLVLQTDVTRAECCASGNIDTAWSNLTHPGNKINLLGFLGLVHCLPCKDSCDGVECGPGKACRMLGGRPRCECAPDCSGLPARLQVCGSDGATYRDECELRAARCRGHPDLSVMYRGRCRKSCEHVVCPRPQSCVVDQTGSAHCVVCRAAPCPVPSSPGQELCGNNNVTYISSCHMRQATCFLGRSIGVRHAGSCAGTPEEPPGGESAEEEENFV
- measurement notes: FSTL3 binders on small-molecule microarrays, primary screen, biochemical, small-molecule microarray, 635 nm fluorescence (AID 1105);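 also: score merges emission near 667 nm and signal to noise per printed spot across three slides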
- experimental parameters: FSTL3 binding, higher = more signal
Reported composite z-score by item:

CC(=O)C[C@H](O)[C@@H](NC(=O)OC(C)(C)C)C(C)C : -0.441

Ask | Consider the compound shown here: COc1ccc(O[C@H]2C=C[C@@H](c3ccccc3)O[C@@H]2CON=C[C@@H](C)[C@H](OCc2ccccc2)C(C)C)cc1 What is its recorded composite z-score?
Reply | -0.761

Ask | For CCOC(=O)NN=C1C[C@@H](O)[C@@H](O)[C@@H]2[C@@H]3C(=O)N(CC)C(=O)[C@@H]3CC[C@@H]12 , what is its reported composite z-score?
Reply | 0.518

Ask | Quick one: composite z-score of COc1ccc(-c2ccc3c(n2)CCCN3CC(O)CN2CCCc3nc(C)c(C)cc32)cc1 (centres undefined) ?
Reply | 0.995

Data origin, for the record: PubChem BioAssay
